System: TDF
Test: H1.0 immunofluorescence intensity relative to DMSO (% of DMSO); higher = stronger H1.0 induction, active = 120 or more
Conditions: concentration: 10 µM; 24 h

# compound, H1.0 immunofluorescence intensity
data = [
    ("CCC12CCCN3CCc4c(n(c5ccccc45)C(=O)C1)C32 (single isomer, unassigned; (-)) [(-)-Eburnamonine]", "118 (inactive)"),
    ("Cc1ccc(OCC(O)C(C)NC(C)C)c2c1CCC2.Cl (configuration not stated) [ICI 118,551 hydrochloride]", "96.9 (inactive)"),
    ("CCCCCCCCCCCC=CCCCCCCC(=O)O [8(Z)-Eicosenoic acid]", "100 (inactive)"),
    ("NC(=O)c1ccccc1 [Benzamide]", "99.2 (inactive)"),
    ("CN1CCCC1c1cccnc1.Cc1ccc(C(=O)OC(C(=O)O)C(OC(=O)c2ccc(C)cc2)C(=O)O)cc1 (stereo not drawn) [(+)-Nicotine (+)-di-p-toluoyl tartrate]", "88.1 (inactive)"),
    ("C(=Cc1ccccc1)CN1CCN(C(c2ccccc2)c2ccccc2)CC1 [Cinnarizine]", "106 (inactive)"),
    ("CCC(=O)OC1(C(=O)CCl)C(C)CC2C3CCC4=CC(=O)C=CC4(C)C3(F)C(O)CC21C (configuration not stated) [Clobetasol Propionate]", "87.8 (inactive)"),
    ("O.c1cnc2c(c1)ccc1cccnc12 [1,10-Phenanthroline monohydrate]", "108 (inactive)"),
    ("CCN(CC)Cc1ccc(C(=O)N(CCc2ccccc2OC)[C@@H]2CCNC2)cc1.Cl.Cl", "100 (inactive)"),
    ("O=C(O)CC/C=C\\C[C@H]1CO[C@@H](c2ccccc2Cl)O[C@H]1c1ccccc1O", "95.5 (inactive)"),
    ("COc1cc(C(=O)NS(=O)(=O)c2ccccc2C)ccc1Cc1cn(C)c2ccc(NC(=O)OC3CCCC3)cc12 [Zafirlukast]", "90.1 (inactive)"),
    ("C=C1C(=CC=C2CCCC3(C)C2CCC3C(C)C=CC(O)C2CC2)CC(O)CC1O (configuration not stated) [Calcipotriene]", "91.9 (inactive)"),
    ("C[C@H](c1ccc(F)cc1CCCC(=O)O)N(c1cc(F)ccc1F)S(=O)(=O)c1ccc(Cl)cc1", "94.6 (inactive)"),
    ("CCCCCC=CCC=CCC=CCCCCC(=O)O [6(Z), 9(Z), 12(Z)-Octadecatrienoic Acid]", "91.1 (inactive)"),
    ("CC1(NC(=O)CBr)CCC(C(C)(C)NCC(O)COc2cccc3[nH]ccc23)CC1 (racemic)", "93.2 (inactive)"),
    ("COc1ccc2nc(S(=O)Cc3ncc(C)c(OC)c3C)[nH]c2c1 (configuration not stated) [Omeprazole]", "95.5 (inactive)"),
    ("CC(C)(C)n1nc(-c2ccc(Cl)cc2)c2c(N)ncnc21", "99.8 (inactive)"),
]

###

Tested on: HCC1569
Assay: H1.0 immunofluorescence intensity relative to DMSO (% of DMSO); higher = stronger H1.0 induction, active = 140 or more
Conditions: concentration: 10 µM; 24 h
Outcomes: yes (active), no (inactive)

# compound, answer.label
rows = [
    ("COc1ccc2c(c1)CCC1C2CCC2(C)C(NCCCCCCN3C(=O)C=CC3=O)CCC12 (centres undefined)", "no"),
    ("N#Cc1cnc2cnc(NCc3cccnc3)cc2c1Nc1ccc(F)c(Cl)c1 [Tpl2 Kinase Inhibitor]", "yes"),
    ("CN(C)CCCN1c2ccccc2Sc2ccc(C(F)(F)F)cc21.Cl [Triflupromazine hydrochloride]", "no"),
    ("Cc1nc2cc3nc(-c4cccs4)cnc3cc2n1C", "no"),
]

###

System: TDF
Experiment: H1.0 immunofluorescence intensity relative to DMSO (% of DMSO); higher = stronger H1.0 induction, active = 120 or more
Conditions: concentration: 10 µM; 24 h
Outcomes: Y for active, N for inactive

# molecule, answer.label
data = [
    ("CSCC[C@@H](C=O)NC(=O)[C@H](CC(C)C)NC(=O)[C@H](CC(C)C)NC(C)=O", "N"),
    ("O=Cc1c2[nH]c3ccccc3c2cc2[nH]c3ccccc3c12 [6-Formylindolo [3,2-B] carbazole]", "N"),
    ("Cc1ccc(C)c(-c2cc(C(F)(F)F)nn2-c2ccc(S(N)(=O)=O)cc2)c1", "N"),
    ("Cl.Cl.c1ccc2c3c([nH]c2c1)C1C2CCC(C4CCCNC42)N1CC3 (stereo not drawn)", "N"),
    ("C=CCCCCCCCCCCC(=O)O", "N"),
    ("O=C(Nc1cc(C(F)(F)F)cc(C(F)(F)F)c1)c1cc(Cl)ccc1O", "N"),
    ("CCCCCCCCCCCCC(O)C(=O)O (stereo not drawn) [2-Hydroxymyristic acid]", "N"),
    ("CCCCCC1OC1CC=CCC=CCC=CCCCC(=O)O (stereo not drawn)", "N"),
    ("CCCCCC(O)C=CC1C(=O)C=CC1CC=CCCCC(=O)O (stereo not drawn)", "N"),
    ("CC(Cc1ccc(O)c(O)c1)(NN)C(=O)O (stereo not drawn) [S-(-)-Carbidopa]", "N"),
    ("COc1cc(Cc2cnc(N)nc2N)cc(OC)c1OC", "N"),
    ("COc1cc2ncnc(Nc3ccc(F)c(Cl)c3)c2cc1OCCCN1CCOCC1", "N"),
    ("CCCCCC=CCC(O)C=CC=CC=CC(O)CCCC(=O)O [5(S),12(S)-DIHETE all trans]", "N"),
    ("COc1cc2c(cc1OC)-c1cc(=Nc3c(C)cc(C)cc3C)n(C)c(=O)n1CC2.Cl [Trequinsin.HCl]", "N"),
    ("COc1ccc(C=C2c3ccccc3C(=O)c3ccccc32)cc1O [10-(3-hydroxy-4-methoxybenzylidene)-9(10H)-anthracenone]", "Y"),
    ("OCc1ccc(-c2nn(Cc3ccccc3)c3ccccc23)o1", "N"),
    ("COc1c(O)cc(O)c2c(=O)cc(-c3ccccc3)oc12", "N"),
    ("CCC12CCCN3CCc4c(n(c5ccccc45)C(O)(C(=O)OC)C1)C32 (stereo not drawn)", "N"),
]

###

Entries and their cell number values follow.
System: HCC1569
Experiment: cell number relative to DMSO (% of DMSO); higher = more cells (less growth inhibition / toxicity)
Conditions: concentration: 10 µM; 24 h

# compound, cell number
measured = [
    ("CC#CC1(O)CCC2C3CCC4=CC(=O)CCC4=C3C(c3ccc(N(C)C)cc3)CC21C (stereo not drawn) [Mifepristone]", 101),
    ("C=C(CC)C(=O)c1ccc(OCC(=O)O)c(Cl)c1Cl [Ethacrynic Acid]", 100),
    ("O=C(Nc1ccc(Cl)cc1)Nc1cccc(-c2cccc(N3CCCC3)n2)c1", 96),
    ("CCCCCC(O)C=CC=CC=CC(O)CC=CCCCC(=O)O (stereo not drawn)", 101),
    ("CCCCCCCCCCCCC(=O)N1CCCCC1CNC(=O)C(N)CCCCN.Cl.Cl (stereo not drawn)", 101),
    ("O=C(O)[C@H]1C[C@H](C(=O)O)N1 (relative stereo) [trans-Azetidine-2,4-dicarboxylic acid]", 95.1),
    ("Cl.NC1(C(=O)O)CC1 [1-Aminocyclopropanecarboxylic acid hydrochloride]", 100),
    ("CCCCCCCCCCCCCCCCCC(=O)NCC(COP(=O)([O-])OCC[N+](C)(C)C)OC (racemic) [rac-2-Methoxy-3-octadecanamido-1-propylphosphocholine]", 101),
]

###

Test system: HCC1569
Assay: cell number relative to DMSO (% of DMSO); higher = more cells (less growth inhibition / toxicity)
Conditions: concentration: 10 µM; 24 h
Is cell number at least 80? Then 1. If not, -1.

# compound, answer.label
rows = [
    ("CC(C)(C)C(=O)OCOC(=O)[C@@H]1N2C(=O)[C@@H](/N=C/N3CCCCCC3)[C@H]2SC1(C)C", 1),
    ("CC(C)C(CO)Nc1nc(Nc2cc(N)cc(Cl)c2)c2ncn(C(C)C)c2n1 (stereo not drawn) [Aminopurvalanol A]", -1),
    ("Nc1ccc2c3c(cccc13)C(=O)NC2=O [4-Amino-1,8-naphthalimide]", 1),
    ("CCN(CC)CCNC(=O)c1c(C)[nH]c(C=C2C(=O)Nc3ccc(Cl)cc32)c1C", -1),
    ("COC1CC2CCC(C)C(O)(O2)C(=O)C(=O)N2CCCCC2C(=O)OC(C(C)CC2CCC(O)C(OC)C2)CC(=O)C(C)C=C(C)C(O)C(OC)C(=O)C(C)CC(C)C=CC=CC=C1C (stereo not drawn) [Rapamycin]", 1),
    ("COc1ccc2nc(S(=O)Cc3ncc(C)c(OC)c3C)[nH]c2c1 (stereo not drawn) [Omeprazole]", 1),
    ("CCCCS(=O)(=O)N[C@@H](Cc1ccc(OCCCCC2CCNCC2)cc1)C(=O)O.Cl.O", 1),
    ("Cc1c(Cl)cccc1Nc1ccccc1C(=O)O [Tolfenamic acid]", 1),
]
